What Ki was measured for each of the following?

Query: Please report the measured Ki for Cc1nn(C)c2nnc(Nc3ccc(S(N)(=O)=O)cc3)nc12 tested on Carbonic anhydrase 1 (Homo sapiens).
Sequence (P00915 whole entry): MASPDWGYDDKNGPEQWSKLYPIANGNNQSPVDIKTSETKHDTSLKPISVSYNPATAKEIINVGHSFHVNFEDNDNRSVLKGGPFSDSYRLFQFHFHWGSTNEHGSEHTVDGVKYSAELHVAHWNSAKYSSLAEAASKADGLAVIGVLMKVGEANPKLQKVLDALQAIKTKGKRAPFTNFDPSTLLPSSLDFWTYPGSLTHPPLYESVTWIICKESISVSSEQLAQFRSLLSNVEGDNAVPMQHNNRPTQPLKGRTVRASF
Response: 0.27 µM

Query: # return Ki for Cc1nn(C)c2nnc(Nc3ccc(S(=O)(=O)N4CCN(C)CC4)cc3)nc12 , test system: Carbonic anhydrase 1 (Homo sapiens)
Response: > 50 µM

Query: Give measured Ki for Cc1nn(C)c2nnc(Nc3ccc(S(=O)(=O)NCCN4CCOCC4)cc3)nc12 (Carbonic anhydrase 1 (Homo sapiens)).
Response: > 50 µM

Query: Quote Ki with test system Carbonic anhydrase 1 (Homo sapiens) for Cc1nn(C)c2nnc(Nc3ccccc3)nc12
Response: > 50 µM

Query: Send back Carbonic anhydrase 1 (Homo sapiens) Ki of Cc1nn(C)c2nnc(Nc3ccc(S(=O)(=O)NCCN)cc3)nc12 only.
Response: > 50 µM

Query: Provide Ki, tested on Carbonic anhydrase 1 (Homo sapiens), for Cc1nn(C)c2nnc(Nc3ccc(S(=O)(=O)N4CCNCC4)cc3)nc12 .
Response: > 50 µM

Query: Specify Ki for Cc1nn(C)c2nnc(Nc3ccc(S(=O)(=O)N4CCCCC4)cc3)nc12 , system Carbonic anhydrase 1 (Homo sapiens).
Response: > 50 µM

Where do these numbers come from? They come from ChEMBL document CHEMBL3259714.
